For each of the compounds below, state its TGI.
tested on: LOX IMVI melanoma; experiment: NCI tumour cell line growth inhibition, 48 h

INSERT INTO results (compound, test_target, meas_value) VALUES
  ('COn1cc(C=O)c2ccccc21', 'LOX IMVI melanoma', '> 100 µM'),
  ('O=C1c2cc3c(cc2CC12Cc1cc4c(cc1C2=O)CCC4)CCCC3 (stereo not drawn)', 'LOX IMVI melanoma', '> 100 µM'),
  ('Clc1ccc(Cl)c(Nc2ccnc(SCc3ccccc3)n2)c1', 'LOX IMVI melanoma', '> 100 µM'),
  ('O=C1CSC(Cc2nc3ccccc3[nH]2)=N1', 'LOX IMVI melanoma', '37.3 µM'),
  ('COC(=O)C12C3C4C5(C(=O)OC)C(C1C35C(=O)N(C(C)C)C(C)C)C42C(=O)N(C(C)C)C(C)C (stereo not drawn)', 'LOX IMVI melanoma', '> 43.6 µM'),
  ('Cn1ccc(C(=O)NCCOCCNC(=O)c2ccn(C)c(=O)c2O)c(O)c1=O', 'LOX IMVI melanoma', '> 100 µM'),
  ('O=C(O)c1nc(-c2ccccn2)c(-c2ccccn2)nc1C(=O)O', 'LOX IMVI melanoma', '16.7 µM'),
  ('COc1cccc(OC)c1/C=C1\OC(=O)c2cccc(OC)c21', 'LOX IMVI melanoma', '> 100 µM'),
  ('Nc1nc(Nc2ccccc2)c2ncn(Cc3cc4c(cc3Br)OCO4)c2n1', 'LOX IMVI melanoma', '> 100 µM'),
  ('CC1=C(Br)C(Br)=C(C)S1=O', 'LOX IMVI melanoma', '27.8 µM');

For every item in the list below, what is its measured TGI?
1. O=C(CCC/C(CC(=O)c1ccc(Br)cc1)=N\O)Nc1ccccc1
2. COc1ccc2c(c1)CCc1c-2[nH]c2ccc(OC)cc12
3. CCOC(=O)c1[nH]c(COC(C)=O)c(CCCOC(C)=O)c1CCCOC(C)=O
4. CCC1OC2C(CC=C(C)C)=C3OC(C)(O)C(C)(CC)C(OC(=O)c4ccccc4)C3=C3OC(=O)C=C1C32 (stereo not drawn)
5. CCCCN1C=CN2c3nc4cc(C)c(C)cc4n3C(C(=O)OC)=C(C(=O)OC)C12 (stereo not drawn)
6. CCCCCCCCCc1cc(=O)c2c(O)cccc2o1
7. CCOC(=O)C1=C(C)N(N)C(=S)NC1c1ccc(C)cc1 (stereo not drawn)

["> 100 µM", "> 100 µM", "> 100 µM", "46.2 µM", "> 100 µM", "72.3 µM", "> 100 µM"]

For every item in the list below, what is its measured TGI?
1. O=c1[nH]c2cc(Cl)ccc2n1C1CCN(CCCC(c2ccc(F)cc2)c2ccc(F)cc2)CC1
2. COc1ccc(CNc2c3ccccc3nc3ccccc23)cc1OC
3. Cc1cn(C2CC(N(O)Cc3ccccc3)C(CO)O2)c(=O)[nH]c1=O (stereo not drawn)
4. O=C1C(Cl)C(c2ccccc2)N1n1cnc2ccccc2c1=O (stereo not drawn)
5. O=S(O)CCCCSSCc1ccccc1CSSCCCCS(=O)O
6. COC(=O)/C=C/C1C(C(=O)OC)C2(C(=O)OC)CCC1(C(=O)OC)N2 (stereo not drawn)

["2.89 µM", "3.47 µM", "> 100 µM", "> 100 µM", "28.7 µM", "> 100 µM"]

---

tested on: KM12 colon; experiment: NCI tumour cell line growth inhibition, 48 h
READOUT_LABEL: TGI

Examples with answers:
INSERT INTO measurements (compound, readout_label, meas_value) VALUES
  ('NC(N)=N/N=C/c1cc(Cl)cc(Cl)c1O', 'TGI', '> 100 µM'),
  ('N#CC(C(=O)/C(=N/Nc1nc(=S)[nH]n1N)C(C#N)c1ccccc1)c1ccccc1 (stereo unspecified)', 'TGI', '> 100 µM'),
  ('CCOC(=O)c1csc(NC(=O)C(C)N2CCCCC2)n1 (stereo unspecified)', 'TGI', '> 100 µM'),
  ('O=C1CSC(Cc2nc3ccccc3[nH]2)=N1', 'TGI', '> 64.1 µM'),
  ('NC(=O)C(=CNc1nc(-c2ccc(Cl)c(Cl)c2)cs1)C(N)=O', 'TGI', '> 100 µM'),
  ('COc1ccc2c(c1)CN1C(=N2)CSC1c1cc([N+](=O)[O-])ccc1Cl (stereo unspecified)', 'TGI', '> 100 µM');

For every item in the list below, what is its measured TGI?
1. CCOC(=O)c1[nH]c(COC(C)=O)c(CCCOC(C)=O)c1CCCOC(C)=O
2. CC1=C(C(=O)Nc2c(C)cccc2C)C(c2ccccc2Cl)C(C(=O)Nc2c(C)cccc2C)=C(C)N1
3. COc1ccc2c(c1)CCc1c-2[nH]c2ccc(OC)cc12
4. CCOC(=O)CC1c2ccc(O)cc2OC(=O)C1c1ccc([N+](=O)[O-])cc1 (stereo unspecified)
5. C/C(=C1/CCCC2(N=NCC2c2ccccc2)C1=O)c1ccccc1 (stereo unspecified)

["> 100 µM", "> 100 µM", "> 100 µM", "97.8 µM", "31.3 µM"]

For every item in the list below, what is its measured TGI?
1. O=C(CN(C1CCCCC1)C1CCCCC1)Nc1ccc(S(=O)(=O)c2ccc(NC(=O)CN(C3CCCCC3)C3CCCCC3)cc2)cc1
2. O=C(CCC(=O)Nc1cccc(Cl)c1)CC(=O)c1ccc(Cl)cc1
3. COc1cc(/C=C2\C[C@H]3[C@@H]4CC=C5C[C@@H](O)CC[C@]5(C)[C@H]4CC[C@]3(C)C2=O)cc(OC)c1OC

["2.05 µM", "> 100 µM", "> 100 µM"]

---

For each of the compounds below, state its GI50.
test system: SNB-75 CNS; experiment: NCI tumour cell line growth inhibition, 48 h

INSERT INTO results (smiles_notation, meas_value) VALUES
  ('Cc1c[n+](Cc2ccc3ccccc3c2)cn1Cc1ccc2ccccc2c1', '1.09 µM'),
  ('CC(=O)O[C@@H]1C[C@]2(C(C)C)O[C@@]1(C)[C@@H]1CCC(C)=C1[C@@H]2OC(=O)/C=C/c1ccccc1', '27.9 µM'),
  ('NC1CCCC[C@H]1N.N[C@@H]1CCCC[C@@H]1N.O=C(P(=O)([O-])[O-])P(=O)([O-])[O-].[Pt+4].[Pt+4]', '> 100 µM'),
  ('Cc1[nH]n(-c2cccc(Cl)c2)c(=O)c1/C=C1\C=Nc2ccc(Br)cc21', '1.25 µM');

Hello, please tell me recorded GI50 for this one: `O=C(N/N=C\c1cc(Br)ccc1O)c1ccncc1`
4.83 µM

---

test system: OVCAR-8 ovarian; assay: NCI tumour cell line growth inhibition, 48 h; in the data active means GI50 below about 0.43 µM; inactive means the rest
// classify into T (active), F (inactive)

INSERT INTO measurements (compound, class_label) VALUES
  ('COc1ccc(/C=c2/sc3n(c2=O)C(c2ccc(OC)c(OC)c2)C2=C(N=3)c3cc(F)ccc3OC2)cc1 (stereo unspecified)', 'F'),
  ('CC(=O)Oc1ccccc1C(=O)N=C1[Se]CCN1C(=O)c1ccccc1OC(C)=O', 'F');

// switching to the query compound
Hello, I am checking results. What call was entered for `Cc1[nH]n(-c2cccc(Cl)c2)c(=O)c1/C=C1\C=Nc2ccc(Br)cc21` ?
F

---

tested on: A498 renal; test: NCI tumour cell line growth inhibition, 48 h
For each of the compounds below, state its log10 TGI.
Answers are given as log10 of TGI in µM.

Examples with answers:
INSERT INTO measurements (compound, readout_label, meas_value) VALUES
  ('CC1=C(Br)C(Br)=C(C)S1=O', 'log10 TGI', 1.98),
  ('COc1cc2cn3c4ccc(O)cc4[nH]c(=O)c3c2cc1OC', 'log10 TGI', 1.03),
  ('COc1ccc(C2C(C#N)=C(N)OC3=C2COc2ccc(F)cc23)cc1OC (stereo not drawn)', 'log10 TGI', 1.77);

For every item in the list below, what is its measured log10 TGI?
1. COc1ccc(CNc2c3ccccc3nc3ccccc23)cc1OC
2. O=C(O)c1nc(-c2ccccn2)c(-c2ccccn2)nc1C(=O)O
3. CCOC(=O)N1CCN(C(=O)c2ccc(C(F)(F)F)nc2Nc2cc(Cl)ccc2C)CC1
4. c1ccc2c3ccn4cc5c(cc4c-3nc2c1)CCCC5

[0.68, 0.61, 1.75, 1.38]

---

system: K-562 leukemia; assay: NCI tumour cell line growth inhibition, 48 h
For each of the molecules below, state its TGI.

INSERT INTO assay_data (molecule, meas_value) VALUES
  ('CC1=CC(C2/C(=N/O)C=C(C)CC2(C)C)C(O)C(C)(C)C1 (stereo not drawn)', '32.1 µM'),
  ('COc1ccc(C2C(C#N)=C(N)OC3=C2COc2ccc(F)cc23)cc1OC (stereo not drawn)', '> 100 µM');

Switching to the query record.
Report TGI on K-562 leukemia for this entry: `Cc1cn2c(/C=C3/C(=O)Nc4ccccc43)c(-c3ccc(Cl)cc3)nc2s1`
> 50 µM
